Target: recombinant human Meningioma Expressed Antigen 5 (MGEA5), also referred to as O-GlcNAcase (OGA) (Homo sapiens, UniProt O60502)
Construct: Full length OGA enzyme was purchased at OnGene (cat #TP322411); purchased OnGene (so in the source)
Sequence (O60502 whole entry): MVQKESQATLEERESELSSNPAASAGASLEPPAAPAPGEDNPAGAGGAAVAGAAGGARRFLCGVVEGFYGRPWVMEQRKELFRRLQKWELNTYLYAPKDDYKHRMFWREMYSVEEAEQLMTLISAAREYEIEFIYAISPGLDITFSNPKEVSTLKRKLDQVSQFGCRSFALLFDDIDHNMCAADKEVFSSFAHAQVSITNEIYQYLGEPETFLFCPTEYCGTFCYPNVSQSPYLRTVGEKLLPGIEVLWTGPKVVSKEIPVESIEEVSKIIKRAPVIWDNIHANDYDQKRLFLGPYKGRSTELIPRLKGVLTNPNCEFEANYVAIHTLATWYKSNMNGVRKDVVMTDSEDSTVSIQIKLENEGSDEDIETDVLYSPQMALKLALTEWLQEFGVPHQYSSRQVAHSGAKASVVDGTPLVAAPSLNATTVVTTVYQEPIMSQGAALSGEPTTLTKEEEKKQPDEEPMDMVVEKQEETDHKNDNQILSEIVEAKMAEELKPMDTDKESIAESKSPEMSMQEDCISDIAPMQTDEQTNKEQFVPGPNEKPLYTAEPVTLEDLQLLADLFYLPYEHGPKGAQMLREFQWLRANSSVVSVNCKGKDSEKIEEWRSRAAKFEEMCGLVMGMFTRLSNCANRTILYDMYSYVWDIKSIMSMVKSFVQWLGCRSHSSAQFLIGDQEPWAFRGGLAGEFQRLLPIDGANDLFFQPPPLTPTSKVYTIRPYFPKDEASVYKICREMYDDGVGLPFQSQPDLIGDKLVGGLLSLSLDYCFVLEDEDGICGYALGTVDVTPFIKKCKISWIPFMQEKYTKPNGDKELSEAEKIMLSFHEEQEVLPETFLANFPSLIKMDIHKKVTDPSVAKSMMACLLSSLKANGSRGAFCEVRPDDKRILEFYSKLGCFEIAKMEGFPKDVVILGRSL
Test: OGA biochemical assay: inhibition of hydrolysis of fluorescein mono-ß-D-N-Acetyl-Glucosamine (FM-GlcNAc), fluorescence readout
Conditions: FM-GlcNAc substrate, read-out: Enzymatic Emax (%)
Each entry below carries its recorded Emax.
Field: numeric (%). Do not append units.

Record excerpt, results attached:
- molecule: "Cc1ccnc(C)c1Nc1nccc2c1ccn2CCC(C)C [Compound 47]"
  measured.endpoint: "Emax"
  result.value: 101
- molecule: "Cc1cc(-c2cnn(C)c2)cc(C)c1Nc1nccc2c1ccn2CC(C)(F)F [Compound 154]"
  measured.endpoint: "Emax"
  result.value: 101
- molecule: "Cn1ccc(-n2ccc3c(Nc4c(Cl)cc(F)cc4Cl)nccc32)n1 [Compound 184]"
  measured.endpoint: "Emax"
  result.value: 101
- molecule: "Cc1cnc(-n2ccc3c(Nc4c(Cl)cc(F)cc4Cl)nccc32)o1 [Compound 183]"
  measured.endpoint: "Emax"
  result.value: 95.3
- molecule: "Cc1ncnc(C(C)C)c1Nc1nccc2c1ccn2CCC1CC1 [Compound 193]"
  measured.endpoint: "Emax"
  result.value: 102

What value of Emax has been reported for the following molecule? CCCCn1ccc2c(Nc3c(C)cccc3C)nccc21 [Compound 72]
100

Quick check: Emax of CCCCn1ccc2c(Nc3c(C)ccc4c3nc(C)n4C)nccc21 [Compound 206] ?
101

Which Emax is listed for Cc1ccnc(C)c1Nc1nccc2c1ccn2CCC1CCO1 (centres unmarked) [Compound 21] ?
96

Record request: Emax value, item Cc1ccnc(C)c1Nc1nccc2c1ccn2CC(F)(F)C(C)C [Compound 202]
101

Given the molecule Cn1cnc(Cn2ccc3c(Nc4c(Cl)cc(F)cc4Cl)nccc32)c1 [Compound 120] , what is its reported Emax?
99.2

Fill in the blank: the reported Emax of CCC(F)(F)Cn1ccc2c(Nc3c(C)ccnc3C)nccc21 [Compound 27] is ____.
104

Requested read-out: Emax. Entry: CCCCn1ccc2c(Nc3c(C)cc(C)cc3C)nccc21 [Compound 68]
104

State the recorded Emax for this entry: Cc1cc(C(F)(F)F)cc(C)c1Nc1nccc2c1ccn2CC(F)(F)C(C)C [Compound 176]
103

What does the record list as Emax for CCCCn1ccc2c(Nc3c(C)cc(C(=O)OC)cc3C)nccc21 [Compound 64] ?
102

Entry under review: Cc1cc(F)cc(C(C)C)c1Nc1nccc2c1ccn2CC(C)(F)F [Compound 148] . Reported Emax?
102

For the molecule shown here, CC(C)=C(F)Cn1ccc2c(Nc3c(C)cc(-c4cnn(C)c4)cc3C)nccc21 [Compound 208] , give the reported Emax.
101

Looking for the measured Emax of Cc1cc(C(F)(F)F)cc(C)c1Nc1nccc2c1ccn2CC(C)(F)F [Compound 130] , can you help?
102

Item under review: CCC(C)Cn1ccc2c(Nc3c(Cl)cccc3Cl)nccc21.Cl (centres unmarked) [Compound 9] . Reported Emax?
105

Could you tell me which Emax is on file for Cc1cncc(Cl)c1Nc1nccc2c1ccn2CC1CC1 [Compound 110] ?
100

Requested field: Emax. Item: Cn1ccnc1Cn1ccc2c(Nc3c(Cl)cccc3Cl)nccc21 [Compound 168]
98.1

Reference source: patent US20210277003A1
